# Tested on: SGC-7901
# METHOD_DESCRIPTION: Antiproliferative activity against human SGC7901 cells after 72 hrs by MTT assay
# Assay type: functional, cell-based
# SETTINGS: SGC-7901, 72 h
pIC50: −log10 of the molar value.
Quick reference: pIC50 of the listed items.
METRIC: pIC50

>  <ENTRY_SMILES>
COc1cc(C(=O)c2nc(-c3ccc(C)cc3)n[nH]2)cc(OC)c1OC

>  <METRIC>
pIC50

>  <BOUND_OPERATOR>
=

>  <RESULT_VALUE>
6.42

$$$$
>  <ENTRY_SMILES>
COc1ccc(/C=C\c2cc(OC)c(OC)c(OC)c2)cc1O

>  <METRIC>
pIC50

>  <BOUND_OPERATOR>
=

>  <RESULT_VALUE>
7.92

$$$$
>  <ENTRY_SMILES>
COc1cc(C(=O)c2nnc(-c3ccc(C)cc3)s2)cc(OC)c1OC

>  <METRIC>
pIC50

>  <BOUND_OPERATOR>
<

>  <RESULT_VALUE>
4.00

$$$$
>  <ENTRY_SMILES>
COc1cc(C(=O)c2nnc(-c3ccc(C)cc3)o2)cc(OC)c1OC

>  <METRIC>
pIC50

>  <BOUND_OPERATOR>
=

>  <RESULT_VALUE>
5.17

$$$$
>  <ENTRY_SMILES>
COc1cc2c(c(OC)c1OC)-c1ccc(OC)c(=O)cc1[C@@H](NC(C)=O)CC2

>  <METRIC>
pIC50

>  <BOUND_OPERATOR>
=

>  <RESULT_VALUE>
6.87

$$$$
